Origin of the recorded values: patent EP4725969A1

molecular target: T1, recombinant human HER2 extracellular domain protein (human, UniProt P04626 23-652); test: BLI, Protein A capture
T1 construct: range 23-652; Range is printed for the immunogen/panning protein; also called ErbB2; recombinant HER2 protein
Here the recorded kon is given for each entry.
REPORTED METRIC: kon (M⁻¹ s⁻¹)

binder="Hu2117HK-Mu03 (Fc fusion, scFv-hIgG1 Fc; not shown: human IgG1 Fc) scFv: EVQLVESGGGLVQPGGSLRLSCAASGFTYSSYGMSWVRQAPGKGLEWVASISGGGSYTKYPDSVKGRFTISRDNSKNTLYLQMNSLRAEDTAVYYCARDYAGFFDVWGQGTLVTVSSGGGGSGGGGSGGGGSDVQMTQSPSSLSASVGDRVTITCRSSQSLVHSNGNTYLHWYQQKPGKAPKLLIYKVSNRFSGVPSRFSGSGSGTDFTLTISSLQPEDFATYFCSQSTHVPYTFGQGTKVEIK" reported_metric=kon endpoint_result=81600
binder="Hu2117HK-Mu01 (Fc fusion, scFv-hIgG1 Fc; not shown: human IgG1 Fc) scFv: EVQLVESGGGLVQPGGSLRLSCAASGFTYSSYGMSWVRQAPGKGLEWVASISGGGSYTKYPDSVKGRFTISRDNSKNTLYLQMNSLRAEDTAVYYCARDYAGFFDVWGQGTLVTVSSGGGGSGGGGSGGGGSDIQMTQSPSSLSASVGDRVTITCRSSQSLVHSNGNTYLHWYQQKPGKSPKLLIYKVSNRFSGVPSRFSGSGSGTDFTLTISSLQPEDFATYFCSQSTHVPYTFGQGTKVEIK" reported_metric=kon endpoint_result=86200
binder="Hu2117HK-Mu39 (Fc fusion, scFv-hIgG1 Fc; not shown: human IgG1 Fc) scFv: EVQLVESGGGLVQPGGSLRLSCAASGFTYSNYGMSWVRQAPGKGLEWVASISGGGSYTKYPDSVKGRFTISRDNSKNTLYLQMNSLRAEDTAVYYCARDYAGFFDVWGQGTLVTVSSGGGGSGGGGSGGGGSDIQMTQSPSSLSASVGDRVTITCRSSQSLVHSNGNTYLHWYQQKPGKAPKLLIYKVSNRFSGVPSRFSGSGSGTDFTLTISSLQPEDFATYFCSQSTHVPYTFGQGTKVEIK" reported_metric=kon endpoint_result=97700
